tested on: Mus musculus; test: Anticancer activity against P388 leukemia in CD2F1 male mice expressed as Average % weight change on day 5 as a measure of toxicity was reported at a dose of 20 mg/kg/day.; type: functional
Task for the reader: assign each of the following molecules its reported Weight change.
Supply the numeric figure in %, leaving out any unit text.

Please supply the value of reported Weight change for the item O=P(N1CCOCCOCCOCCOCC1)(N1CC1)N1CC1
-2

Please supply the value of reported Weight change for the item S=P(N1CCOCCOCCOCCOCCOCC1)(N1CC1)N1CC1
10.6

Please supply the value of reported Weight change for the item S=P(N1CCOCCOCCOCCOCC1)(N1CC1)N1CC1
7.9

Please supply the value of reported Weight change for the item C1COCCOCCOCCOCCN1
8.3

Please supply the value of reported Weight change for the item CCOCCOCCOP(=O)(N1CC1)N1CC1
2.8

Please supply the value of reported Weight change for the item CCOCCOCCOP(=S)(N1CC1)N1CC1
2.6

Please supply the value of reported Weight change for the item CCOCCOCCOP(=O)(N1CC1(C)C)N1CC1(C)C (centres undefined)
1.5

Please supply the value of reported Weight change for the item O=P(N1CCOCCOCCOCCOCCOCC1)(N1CC1)N1CC1
7.6

Please supply the value of reported Weight change for the item CCOCCOCCOP(=S)(N1CC1(C)C)N1CC1(C)C (centres undefined)
1.6

---

assay: partition coefficient with the use of 1-octanol / water solvent system; assay type: physicochemical
MEASURED_METRIC: Partition coefficient
Form field (numeric): enter value without unit.

Please supply the value of reported Partition coefficient for the item O=P(N1CCOCCOCCOCCOCCOCC1)(N1CC1)N1CC1
0.044

Please supply the value of reported Partition coefficient for the item S=P(N1CC1)(N1CC1)N1CC1
2.54

Please supply the value of reported Partition coefficient for the item CCOCCOCCOP(=S)(N1CC1(C)C)N1CC1(C)C (centres undefined)
2.95

Please supply the value of reported Partition coefficient for the item O=P(N1CCOCCOCCOCCOCC1)(N1CC1)N1CC1
1.32

Please supply the value of reported Partition coefficient for the item CCOCCOCCOP(=O)(N1CC1)N1CC1
1.25

Please supply the value of reported Partition coefficient for the item CCOCCOCCOP(=S)(N1CC1)N1CC1
2.4

Please supply the value of reported Partition coefficient for the item S=P(N1CCOCCOCCOCCOCC1)(N1CC1)N1CC1
2.6

Please supply the value of reported Partition coefficient for the item S=P(N1CCOCCOCCOCCOCCOCC1)(N1CC1)N1CC1
5.6

Please supply the value of reported Partition coefficient for the item CCOCCOCCOP(=O)(N1CC1(C)C)N1CC1(C)C (centres undefined)
1.65

---

Task for the reader: assign each of the following compounds its reported Survivors.
system: Mus musculus; experiment: Compound was evaluated for the anticancer activity against P388 leukemia in CD2F1 male mice at a dose of 60 mg/kg/after 30 days; 0/6; format: functional
Form field (numeric): enter value without unit.

Please supply the value of reported Survivors for the item O=P(N1CCOCCOCCOCCOCCOCC1)(N1CC1)N1CC1
0

Please supply the value of reported Survivors for the item CCOCCOCCOP(=S)(N1CC1)N1CC1
0

Please supply the value of reported Survivors for the item CCOCCOCCOP(=S)(N1CC1(C)C)N1CC1(C)C (stereo not drawn)
0

Please supply the value of reported Survivors for the item S=P(N1CCOCCOCCOCCOCC1)(N1CC1)N1CC1
0

Please supply the value of reported Survivors for the item CCOCCOCCOP(=O)(N1CC1)N1CC1
0

Please supply the value of reported Survivors for the item S=P(N1CCOCCOCCOCCOCCOCC1)(N1CC1)N1CC1
0

Please supply the value of reported Survivors for the item C1COCCOCCOCCOCCN1
0

Please supply the value of reported Survivors for the item CCOCCOCCOP(=O)(N1CC1(C)C)N1CC1(C)C (stereo not drawn)
0
